Values were extracted from patent US11420958B2.

# Target entity: human TLR9 (Homo sapiens (Human))
# Sequence (Q9NR96 26-1032): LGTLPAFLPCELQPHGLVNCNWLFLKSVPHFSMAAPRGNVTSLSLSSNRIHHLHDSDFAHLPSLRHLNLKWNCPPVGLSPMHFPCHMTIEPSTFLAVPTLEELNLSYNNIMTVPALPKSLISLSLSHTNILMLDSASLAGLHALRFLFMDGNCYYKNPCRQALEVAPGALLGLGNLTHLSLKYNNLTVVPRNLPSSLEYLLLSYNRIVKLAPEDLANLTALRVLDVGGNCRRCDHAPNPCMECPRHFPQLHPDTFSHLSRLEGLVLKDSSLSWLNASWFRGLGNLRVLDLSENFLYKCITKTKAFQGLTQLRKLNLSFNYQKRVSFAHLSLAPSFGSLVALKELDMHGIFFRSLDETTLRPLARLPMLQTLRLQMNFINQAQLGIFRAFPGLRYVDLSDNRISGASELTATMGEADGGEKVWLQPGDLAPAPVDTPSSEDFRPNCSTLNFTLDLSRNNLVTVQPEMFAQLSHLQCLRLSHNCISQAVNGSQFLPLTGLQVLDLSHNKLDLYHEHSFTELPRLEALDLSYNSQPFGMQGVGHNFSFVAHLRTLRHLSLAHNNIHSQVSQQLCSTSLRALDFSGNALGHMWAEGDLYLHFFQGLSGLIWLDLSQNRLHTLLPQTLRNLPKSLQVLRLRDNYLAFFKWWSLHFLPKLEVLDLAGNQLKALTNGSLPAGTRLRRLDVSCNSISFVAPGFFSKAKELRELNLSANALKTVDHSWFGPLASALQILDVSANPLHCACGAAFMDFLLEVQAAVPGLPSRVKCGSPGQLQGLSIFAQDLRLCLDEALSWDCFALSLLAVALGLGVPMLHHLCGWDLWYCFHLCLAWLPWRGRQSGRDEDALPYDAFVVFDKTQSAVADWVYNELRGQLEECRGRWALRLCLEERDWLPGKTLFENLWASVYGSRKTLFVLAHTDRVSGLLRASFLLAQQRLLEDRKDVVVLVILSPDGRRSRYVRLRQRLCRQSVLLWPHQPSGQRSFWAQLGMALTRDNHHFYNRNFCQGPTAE
# Experiment: TLR9 inhibition reporter assay (HEK-Blue, SEAP)
# Applied conditions: HEK-Blue cells overexpressing human TLR9, ODN2006 5 nM stimulation
Mark each entry YES if its IC50 sits below 1000 nM, and NO for all others.

1) Cc1cc(-c2[nH]c3ccc(-c4nnc(NC(=O)CN(C)C)o4)cc3c2C(C)C)ccn1 [Example 190] :: NO

Ask | Hi there! Is IC50 for COc1ccc(-c2[nH]c3ccc(-c4nnc(C5CCN(C(=O)OC(C)(C)C)CC5)o4)cc3c2C(C)C)cc1OC [Example 19] below 1000 nM, do you know?
Reply | NO

Ask | Hi there! Is IC50 for Cc1cc(-c2[nH]c3ccc(-c4nnc(CC(C)N)o4)cc3c2C(C)C)ccn1 (stereo not drawn) [Example 259] below 1000 nM, do you know?
Reply | YES

Ask | Hi there! Is IC50 for CC(C)c1c(-c2ccnc3[nH]ncc23)[nH]c2ccc(-c3nnc(CN4CC[C@@H](N(C)C)C4)o3)cc12 [Example 157] below 1000 nM, do you know?
Reply | NO

* * *

# Target entity: human TLR7 (Homo sapiens (Human), UniProt Q9NYK1)
# Sequence (Q9NYK1 27-1049): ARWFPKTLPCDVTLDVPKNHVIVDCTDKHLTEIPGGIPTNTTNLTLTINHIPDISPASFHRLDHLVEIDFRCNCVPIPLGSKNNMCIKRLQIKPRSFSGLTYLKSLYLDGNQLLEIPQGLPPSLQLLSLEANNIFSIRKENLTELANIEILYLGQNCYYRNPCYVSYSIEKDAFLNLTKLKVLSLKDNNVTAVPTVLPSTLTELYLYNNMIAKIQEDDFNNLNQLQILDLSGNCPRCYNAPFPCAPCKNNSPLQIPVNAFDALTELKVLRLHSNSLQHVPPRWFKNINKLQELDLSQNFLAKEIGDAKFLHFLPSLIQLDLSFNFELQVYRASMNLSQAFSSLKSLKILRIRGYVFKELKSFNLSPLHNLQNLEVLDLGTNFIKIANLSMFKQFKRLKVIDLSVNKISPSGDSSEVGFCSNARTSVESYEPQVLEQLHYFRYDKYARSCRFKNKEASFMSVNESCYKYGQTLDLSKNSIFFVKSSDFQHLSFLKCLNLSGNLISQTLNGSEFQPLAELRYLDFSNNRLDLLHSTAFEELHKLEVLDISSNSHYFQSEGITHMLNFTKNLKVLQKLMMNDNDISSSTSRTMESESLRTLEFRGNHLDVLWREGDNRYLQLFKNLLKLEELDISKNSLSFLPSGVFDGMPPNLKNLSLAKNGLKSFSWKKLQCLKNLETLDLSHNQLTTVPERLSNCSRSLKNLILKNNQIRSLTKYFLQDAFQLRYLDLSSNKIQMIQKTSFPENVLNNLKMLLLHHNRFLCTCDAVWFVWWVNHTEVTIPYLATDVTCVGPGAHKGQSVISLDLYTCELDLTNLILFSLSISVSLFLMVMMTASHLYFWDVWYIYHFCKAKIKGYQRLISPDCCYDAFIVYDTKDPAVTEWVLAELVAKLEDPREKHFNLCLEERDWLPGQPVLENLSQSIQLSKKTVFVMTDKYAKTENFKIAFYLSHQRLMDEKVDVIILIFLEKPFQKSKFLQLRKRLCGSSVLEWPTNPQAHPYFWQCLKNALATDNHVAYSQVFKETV
# Experiment: TLR7 inhibition reporter assay (HEK-Blue, SEAP)
# Format: cell-based
# Applied conditions: HEK-Blue cells overexpressing human TLR7, gardiquimod 7.5 μM stimulation
Measurement label: pIC50
Please keep in mind that pIC50 is minus log10 of the molar concentration; only the number is needed.

1. Cc1cc(-c2[nH]c3ccc(-c4nnc(C5CCCN(C(C)C)C5)o4)cc3c2C(C)C)ccn1 (centres unmarked) [Example 298] :: 7.60
2. Cc1cc(-c2[nH]c3ccc(-c4nc(C(=O)N5CC6CNCC6C5)co4)cc3c2C(C)C)ccn1 (centres unmarked) [Example 172] :: 7.31
3. COc1ccc(-c2[nH]c3ccc(-c4cnc(N5CCNCC5)cc4C)cc3c2C(C)C)cc1OC [Example 419] :: 7.30
4. Cc1cc(-c2[nH]c3ccc(-c4nnc(C(=O)NC5CCN(C(C)C)CC5)s4)cc3c2C(C)C)ccn1 [Example 135] :: 7.36
5. Cc1cc(-c2[nH]c3ccc(-c4nn5c(c4C(N)=O)CNCC5)cc3c2C(C)C)ccn1 [Example 216] :: 7.60

Short answer for CNCCc1nnc(-c2ccc3[nH]c(-c4ccc5ncnn5c4)c(C(C)C)c3c2)o1 [Example 226] : pIC50 was 7.34

Short answer for Cc1cc(-c2[nH]c3ccc(-c4nnc(C[C@@H]5CCCN5)o4)cc3c2C(C)C)ccn1 [Example 71] : pIC50 was 7.41

Short answer for COc1ccc(-c2[nH]c3ccc(-c4cnc(N5CCN(Cc6ccsc6)CC5)nc4)cc3c2C(C)C)cc1OC [Example 429] : pIC50 was 5.89

* * *

Examples of compounds with documented IC50 follow.
# Target entity: human TLR8 (Homo sapiens (Human))
# Experiment: TLR8 inhibition reporter assay (HEK-Blue, SEAP)
# Applied conditions: HEK-Blue cells overexpressing human TLR8, R848 15.9 μM stimulation
Numbers only; they are read as nM.

1) CNC(=O)CN1CCc2cc(-c3ccc4[nH]c(-c5ccnc(C)c5)c(C(C)C)c4c3)sc2C1 [Example 315] :: 17
2) Cc1cc(-c2[nH]c3ccc(-c4ccnc(C5CCNCC5)c4)cc3c2C(C)C)cc(C)n1 [Example 344] :: 7.9
3) Cc1cc(-c2[nH]c3ccc(-c4nnc(C(=O)NC5CCN(C(C)C)CC5)s4)cc3c2C(C)C)ccn1 [Example 135] :: 7.8
4) COc1ccc(-c2[nH]c3ccc(-c4nnc(C(=O)N5CC6CNCC6C5)o4)cc3c2C(C)C)cc1OC (centres unmarked) [Example 61] :: 6.9
5) COc1ccc(-c2[nH]c3ccc(-c4ccc(OCCCN(C)C)nc4)cc3c2C(C)C)cc1OC [Example 421] :: 12
6) Cc1cc(-c2[nH]c3ccc(-c4cc5c(s4)CN(CC(=O)N(C)C)CC5)cc3c2C(C)C)cc(C)n1 [Example 342] :: 8.9
7) Cc1cc(-c2[nH]c3ccc(-c4cn5cc(C)nc5cc4C)cc3c2C(C)C)cc(C)n1 [Example 347] :: 6.9
8) Cc1cc(-c2[nH]c3ccc(-c4ccnc(N5CCN(C(C)C)CC5)c4)cc3c2C(C)C)cc(C)n1 [Example 326] :: 13

Short answer for Cc1cc(-c2[nH]c3ccc(-c4nnc(C5CCCC(N)C5)o4)cc3c2C(C)C)ccn1 (centres unmarked) [Example 179] : IC50 was 6

Short answer for Cc1cc(-c2[nH]c3ccc(-c4nc(C(=O)NCCN5CCCCC5)co4)cc3c2C(C)C)cc(C)n1 [Example 274] : IC50 was 6.2

Short answer for CCc1c(-c2ccnc3[nH]ncc23)[nH]c2ccc(-c3ccc(N4CCN(C)CC4)cc3)cc12 [Example 384] : IC50 was 12

* * *

# Target entity: human TLR7 (Homo sapiens (Human))
# Experiment: TLR7 inhibition reporter assay (HEK-Blue, SEAP)
# Applied conditions: HEK-Blue cells overexpressing human TLR7, gardiquimod 7.5 μM stimulation
Examples of compounds with documented IC50 follow.
Numbers only; they are read as nM.

Use these answered entries as a reference point.
1. Cc1cc(-c2[nH]c3ccc(-c4nc(C(=O)NCC(C)CN)co4)cc3c2C(C)C)cc(C)n1 (stereo not shown) :: 21
2. CCc1c(-c2ccnc(C)c2)[nH]c2ccc(-c3noc(CN(C)C)n3)cc12 :: 703
3. Cc1cc(-c2[nH]c3ccc(-c4nnc(C5CNCCO5)o4)cc3c2C(C)C)ccn1 (stereo not shown) :: 38

Short answer for COc1ccc(-c2[nH]c3ccc(-c4cnc(N5CCN(CCC(C)O)CC5)nc4)cc3c2C(C)C)cc1OC (stereo not shown) : IC50 was 145

* * *

Examples of compounds with documented pIC50 follow.
# Target entity: human TLR8 (Homo sapiens (Human), UniProt Q9NR97)
# Sequence (Q9NR97 27-1041): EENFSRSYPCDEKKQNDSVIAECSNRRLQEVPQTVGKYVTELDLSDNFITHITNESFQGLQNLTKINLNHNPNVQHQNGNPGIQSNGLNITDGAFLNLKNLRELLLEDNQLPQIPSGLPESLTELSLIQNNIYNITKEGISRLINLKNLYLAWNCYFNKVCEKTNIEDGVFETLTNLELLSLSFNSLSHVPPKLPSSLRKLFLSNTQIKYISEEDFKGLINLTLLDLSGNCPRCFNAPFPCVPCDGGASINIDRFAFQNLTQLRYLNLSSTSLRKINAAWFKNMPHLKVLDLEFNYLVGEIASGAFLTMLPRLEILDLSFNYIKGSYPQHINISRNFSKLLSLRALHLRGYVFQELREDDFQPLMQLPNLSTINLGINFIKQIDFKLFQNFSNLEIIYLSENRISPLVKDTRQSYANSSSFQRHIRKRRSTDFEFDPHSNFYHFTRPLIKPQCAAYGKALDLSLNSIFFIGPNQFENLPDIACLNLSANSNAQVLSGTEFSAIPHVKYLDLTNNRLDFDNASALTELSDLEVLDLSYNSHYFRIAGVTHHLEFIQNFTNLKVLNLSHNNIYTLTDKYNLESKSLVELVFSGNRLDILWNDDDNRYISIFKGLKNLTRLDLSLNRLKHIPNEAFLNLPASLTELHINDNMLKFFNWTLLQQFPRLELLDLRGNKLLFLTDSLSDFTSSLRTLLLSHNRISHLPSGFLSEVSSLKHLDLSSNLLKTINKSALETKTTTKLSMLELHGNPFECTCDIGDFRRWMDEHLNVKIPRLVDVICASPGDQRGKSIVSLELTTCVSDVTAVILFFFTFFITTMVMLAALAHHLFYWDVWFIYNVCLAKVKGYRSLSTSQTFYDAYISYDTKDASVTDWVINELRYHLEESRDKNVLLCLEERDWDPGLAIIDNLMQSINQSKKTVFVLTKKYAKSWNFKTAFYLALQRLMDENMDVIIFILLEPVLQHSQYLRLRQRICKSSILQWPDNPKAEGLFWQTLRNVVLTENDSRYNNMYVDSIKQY
# Experiment: TLR8 inhibition reporter assay (HEK-Blue, SEAP)
# Applied conditions: HEK-Blue cells overexpressing human TLR8, R848 15.9 μM stimulation
Please keep in mind that pIC50 is minus log10 of the molar concentration; only the number is needed.

1. Cc1cc(-c2[nH]c3ccc(-c4nnc([C@@H]5CCCC[C@@H]5N)o4)cc3c2C(C)C)ccn1 :: 9.30
2. Cc1cc(-c2[nH]c3ccc(-c4ccc(N5CC(C)OC(C)C5)nc4)cc3c2C(C)C)cc(C)n1 (centres unmarked) :: 6.97
3. Cc1cc(-c2[nH]c3ccc(-c4cnc(C5CCNCC5)s4)cc3c2C(C)C)ccn1 :: 8.31
4. Cc1cc(-c2[nH]c3ccc(-c4nnc(Cn5ccnc5)o4)cc3c2C(C)C)ccn1 :: 7.57
5. CC(C)c1c(-c2ccnc3[nH]ncc23)[nH]c2ccc(-c3ccnc4[nH]ncc34)cc12 :: 8.43
6. CCc1c(-c2ccc(OC)c(OC)c2)[nH]c2ccc(-c3noc(C4CCN(Cc5ccccc5)CC4)n3)cc12 :: 6.35
7. COc1ccc(-c2[nH]c3ccc(-c4nnc(Cc5c[nH]cn5)o4)cc3c2C(C)C)cc1OC :: 7.80
8. CC(C)c1c(-c2ccnc3[nH]ncc23)[nH]c2ccc(-c3nnc(C(=O)NC4CCN(C(C)C)CC4)s3)cc12 :: 8.11

Short answer for Cc1cc(-c2[nH]c3ccc(-c4ccc(NC(=O)CN(C)C)nc4)cc3c2C(C)C)ccn1 : pIC50 was 8.52

Short answer for Cc1cc(-c2[nH]c3ccc(-c4nnc([C@@H]5CCCN5)o4)cc3c2C(C)C)ccn1 : pIC50 was 8.35

Short answer for CC(C)c1c(-c2ccnc3[nH]ncc23)[nH]c2ccc(-c3nnc(C4CCN(C(=O)CN(C)C)CC4)o3)cc12 : pIC50 was 8.21

* * *

# Target entity: human TLR7 (Homo sapiens (Human))
# Experiment: TLR7 inhibition reporter assay (HEK-Blue, SEAP)
# Applied conditions: HEK-Blue cells overexpressing human TLR7, gardiquimod 7.5 μM stimulation
Examples of compounds with documented pIC50 follow.
Please keep in mind that pIC50 is minus log10 of the molar concentration; only the number is needed.

Use these answered entries as a reference point.
1. COc1ccc(-c2[nH]c3ccc(-c4nnc([C@H]5CCCNC5)o4)cc3c2C(C)C)cc1OC :: 7.59
2. CC(C)c1c(-c2ccnc3[nH]ncc23)[nH]c2ccc(-c3nc(C(=O)N4CCCN(C)CC4)co3)cc12 :: 6.71
3. COc1ccc(-c2[nH]c3ccc(-c4nnc(C5CCN(C)CC5)o4)cc3c2C(C)C)cc1OC :: 7.51
4. COc1ccc(-c2[nH]c3ccc(-c4nnc(C5CCN(C6CCN(C)CC6)CC5)o4)cc3c2C(C)C)cc1OC :: 7.22
5. Cc1cc(-c2[nH]c3ccc(-c4nc5c(s4)CN(CC(=O)N(C)C)CC5)cc3c2C(C)C)cc(C)n1 :: 7.62
6. Cc1cc(-c2[nH]c3ccc(-c4cccc(C(=O)NC5CCN(C(C)C)CC5)c4)cc3c2C(C)C)ccn1 :: 6.83
7. Cc1cc(-c2[nH]c3ccc(-c4cc(F)c5nc(C)cn5c4)cc3c2C(C)C)cc(C)n1 :: 7.20
8. Cc1cc(-c2[nH]c3ccc(-c4nc5c(s4)CN(C(=O)CN(C)C)CC5)cc3c2C(C)C)cc(C)n1 :: 9.10

Log: human TLR7 (Homo sapiens (Human)), compound COCCNCc1nnc(-c2ccc3[nH]c(-c4ccc(OC)c(OC)c4)c(C(C)C)c3c2)o1 , pIC50 = 5.38

Log: human TLR7 (Homo sapiens (Human)), compound COc1ccc(-c2[nH]c3ccc(-c4nnc(CN5CCC[C@H]5C(N)=O)o4)cc3c2C(C)C)cc1OC , pIC50 = 6.65

Log: human TLR7 (Homo sapiens (Human)), compound Cc1cc(-c2[nH]c3ccc(-c4nnc(C5CN6CCC5CC6)o4)cc3c2C(C)C)ccn1 (stereo not drawn) [Example 222] , pIC50 = 7.47

Log: human TLR7 (Homo sapiens (Human)), compound COc1ccc(-c2[nH]c3ccc(-c4ccc(N5CCCN(CCO)CC5)cc4)cc3c2C(C)C)cc1OC , pIC50 = 6.16
